# credit: the RNAGym collection of RNA variant scans (doi:10.7554/elife.90254)

B1: LINE1-full (parent)
chain: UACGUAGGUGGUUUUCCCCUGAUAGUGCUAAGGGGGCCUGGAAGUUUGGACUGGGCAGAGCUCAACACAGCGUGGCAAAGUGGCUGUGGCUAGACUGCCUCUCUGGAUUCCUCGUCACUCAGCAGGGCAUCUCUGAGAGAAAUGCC

Variants of: B1
Experiment: self-cleavage, relative activity (ratio to wild type); higher = more cleavage; in vitro, sequencing; the parent is a self-cleaving ribozyme
The class of a record is decided solely by its measured self-cleavage; consult class A = under 0.4, class B = from 0.4 up to 1, class C = 1 and over

INSERT INTO results (mutant, label_class) VALUES
  ('G58A A79G', 'class A'),
  ('U13C A79U', 'class C'),
  ('A30U A140U', 'class B'),
  ('A57G U143A', 'class B'),
  ('G35U G127A', 'class C'),
  ('U12A A124G', 'class B'),
  ('A43U G58A', 'class A'),
  ('A57G U108C', 'class C'),
  ('U20A A69C', 'class A');
